Recorded values, source PubChem BioAssay (NCI).

# Test system: SN12C renal
# TEST PROTOCOL: NCI tumour cell line growth inhibition, 48 h
QUANTITY NAME: GI50

COMPOUND | QUANTITY NAME | RECORDED MEASUREMENT
CCOc1ccc(Nc2nc(-c3ccc4c(c3)NC(=O)CO4)cs2)cc1 | GI50 | 49.4 µM
O=C(N/N=C/c1ccccc1Cl)c1ccccc1Nc1ccnc(C(F)(F)F)c1 | GI50 | 1.27 µM
NC(=N\N=C/c1cccc([N+](=O)[O-])c1)/C(N)=N\N=C/c1cccc([N+](=O)[O-])c1 | GI50 | > 100 µM
C=C1C(=O)[C@@]23CC1C(O)[C@@H](OC(C)=O)[C@@H]2C1(C)C(OC(C)=O)C[C@@H](OC(C)=O)C(C)(C)[C@@H]1C[C@H]3OC(C)=O (stereo partly drawn) | GI50 | 5.5 µg/mL
CC[O-].CC[O-].O=C1C(c2ccccc2)=C([O-])c2ccccc21.O=C1C(c2ccccc2)=C([O-])c2ccccc21.[Ti+4] | GI50 | > 100 µM
CCCN1CCN(c2ccc3nc(-c4ccc5nc(-c6cc(OC)ccc6OC)[nH]c5c4)[nH]c3c2)CC1 | GI50 | 16.3 µM
O=C(Nc1cc[c]([Sb](=[O])([OH])[OH])cc1)c1ccccc1 | GI50 | > 100 µM
COc1ccc(-c2nc3ncccn3c2/C=C/C(=O)c2cc(OC)c(OC)c(OC)c2)cc1 | GI50 | 2.56 µM

====

# Test system: HL-60(TB) leukemia
# TEST PROTOCOL: NCI tumour cell line growth inhibition, 48 h

COMPOUND | TARGET OR SYSTEM | UNIT ABBREVIATION | QUALIFIER OPERATOR | TGI
C[C@]12CC[C@H](OCCC#N)CC1=CC[C@@H]1C2CC[C@]2(C)/C(=N/OCCC#N)CCC12 (stereo not given in full) | HL-60(TB) leukemia | µM | > | 100
CN(C)c1ccc(/C=c2/c3ccccc3n3c2cc(C24CC5CC(CC(C5)C2)C4)[n+]3C)cc1 | HL-60(TB) leukemia | µM | = | 0.666
C=CCN1C=CC(=O)[C@H](O[Si](C)(C)C(C)(C)C)[C@@H]1/C=C/c1ccccc1 | HL-60(TB) leukemia | µM | = | 20.2
CCN(CC)C(=S)SNCc1ccc(S(N)(=O)=O)cc1 | HL-60(TB) leukemia | µM | = | 22.8
O=c1oc2ccccc2c(O)c1C(c1ccc(/C=C/c2ccccc2)cc1)c1c(O)c2ccccc2oc1=O | HL-60(TB) leukemia | µM | > | 100
CCCN1CCN(c2ccc3nc(-c4ccc5nc(-c6cc(OC)ccc6OC)[nH]c5c4)[nH]c3c2)CC1 | HL-60(TB) leukemia | µM | = | 8.91
COc1ccc(C(=O)OC2C=COC(C)C2OC(=O)c2ccc(OC)cc2)cc1 (stereo not given) | HL-60(TB) leukemia | µM | = | 38
Nc1ccc2c3c(n(CCCCl)c(=O)c2c1)-c1cc2c(cc1C3=O)OCO2 | HL-60(TB) leukemia | µM | > | 100
Cc1cc(I)cc(CN(C)CCN2CCCC2)c1O | HL-60(TB) leukemia | µM | = | 34.2
COc1ccc2cc3[n+](cc2c1OC)CCc1cc(O)c(O)cc1-3 | HL-60(TB) leukemia | µM | > | 100
